Reported Osteocalcin Suppression (ED80 dose) values for a set of compounds
Tested on: osteocalcin
assay.notes: 28-day mouse side-effect model, serum osteocalcin suppression
Type: in vivo
experimental.conditions: oral gavage 28 days

molecular.string: Cc1ncccc1NC(=O)c1ccc2c(c1)CC[C@@H]1C[C@@](O)(C(F)(F)F)[C@](C)(O)C[C@@]21Cc1ccccc1
target.of.assay: osteocalcin
Osteocalcin Suppression (ED80 dose): >1
--
molecular.string: C[C@@]1(O)C[C@@]2(Cc3ccccc3)c3ccc(C(=O)NCc4cccnc4)cc3CC[C@@H]2C[C@@]1(O)c1ccccc1
target.of.assay: osteocalcin
Osteocalcin Suppression (ED80 dose): >60
--
molecular.string: Cc1nc(Br)ccc1NC(=O)c1ccc2c(c1)CC[C@@H]1C[C@@](O)(c3ccccc3)[C@](C)(O)C[C@@]21Cc1ccccc1
target.of.assay: osteocalcin
Osteocalcin Suppression (ED80 dose): 0.97
--
molecular.string: Cc1ncccc1NC(=O)c1ccc2c(c1)C(=O)C[C@@H]1C[C@@](O)(c3ccccc3)[C@](C)(O)C[C@@]21Cc1ccccc1
target.of.assay: osteocalcin
Osteocalcin Suppression (ED80 dose): 0.35
--
molecular.string: Cc1ncccc1NC(=O)c1ccc2c(c1)CC[C@@H]1C[C@@](O)(c3ccccn3)[C@](C)(O)C[C@@]21Cc1ccccc1
target.of.assay: osteocalcin
Osteocalcin Suppression (ED80 dose): >20

###

System: TNFα
assay.notes: LPS-induced human whole blood, TNFα release
Type: cell-based
experimental.conditions: Homo sapiens, 333.3333 nM, mean of donors
Reported inhibition at 0.333333 µM values for a set of molecules
endpoint: inhibition at 0.333333 µM (%)

molecular.string: Cc1ncccc1CNC(=O)c1ccc2c(c1)CC[C@@H]1C[C@@](O)(CCC(F)(F)F)CC[C@@]21Cc1ccccc1
endpoint: inhibition at 0.333333 µM
recorded.measurement: -4.61
//
molecular.string: Oc1ccc2c(c1)CC[C@@H]1C[C@@](O)(c3ccccc3)[C@@H](O)C[C@@]21Cc1ccccc1
endpoint: inhibition at 0.333333 µM
recorded.measurement: -3.43
//
molecular.string: C[C@]12C=CC(=O)C=C1CC[C@@H]1[C@@H]2[C@@H](O)C[C@@]2(C)[C@H]1CC[C@]2(O)C(=O)CO
endpoint: inhibition at 0.333333 µM
recorded.measurement: 86.9
//
molecular.string: Cc1ncccc1COc1ccc2c(c1)CC[C@@H]1C[C@@](O)(c3ccccc3)[C@@H](O)C[C@@]21Cc1ccccc1
endpoint: inhibition at 0.333333 µM
recorded.measurement: -13.8

###

Test system: IFNγ
assay.notes: LPS-induced human whole blood, IFNγ release
Type: cell-based
experimental.conditions: Homo sapiens, 37.03704 nM, mean of donors
Reported inhibition at 0.037037 µM values for a set of compounds

molecular.string: Cc1ncccc1COc1ccc2c(c1)CC[C@@H]1C[C@@](O)(c3ccccc3)[C@@H](O)C[C@@]21Cc1ccccc1
target.of.assay: IFNγ
quantity.unit: %
inhibition at 0.037037 µM: -2.58
//
molecular.string: Oc1ccc2c(c1)CC[C@@H]1C[C@@](O)(c3ccccc3)[C@@H](O)C[C@@]21Cc1ccccc1
target.of.assay: IFNγ
quantity.unit: %
inhibition at 0.037037 µM: -13.4
//
molecular.string: Cc1ncccc1CNC(=O)c1ccc2c(c1)CC[C@@H]1C[C@@](O)(CCC(F)(F)F)CC[C@@]21Cc1ccccc1
target.of.assay: IFNγ
quantity.unit: %
inhibition at 0.037037 µM: -9.81
//
molecular.string: C[C@]12C=CC(=O)C=C1CC[C@@H]1[C@@H]2[C@@H](O)C[C@@]2(C)[C@H]1CC[C@]2(O)C(=O)CO
target.of.assay: IFNγ
quantity.unit: %
inhibition at 0.037037 µM: 70.7

###

Reported ED50 at 28 days values for a set of compounds
Test system: serum insulin
assay.notes: 28-day mouse side-effect model, serum insulin
Type: in vivo
experimental.conditions: female, Swiss Webster, oral gavage 28 days, read-out: Insulin (ED50 dose)
endpoint: ED50 at 28 days (mg/kg)

molecular.string: C[C@@]1(O)C[C@@]2(Cc3ccccc3)c3ccc(C(=O)NCc4cccnc4)cc3CC[C@@H]2C[C@@]1(O)c1ccccc1
inequality.symbol: >
recorded.measurement: 60

molecular.string: Cc1ncccc1NC(=O)c1ccc2c(c1)CC[C@@H]1C[C@@](O)(C(F)(F)F)[C@](C)(O)C[C@@]21Cc1ccccc1
inequality.symbol: >
recorded.measurement: 1

molecular.string: Cc1nc(Br)ccc1NC(=O)c1ccc2c(c1)CC[C@@H]1C[C@@](O)(c3ccccc3)[C@](C)(O)C[C@@]21Cc1ccccc1
inequality.symbol: =
recorded.measurement: 1.04

molecular.string: Cc1ncccc1NC(=O)c1ccc2c(c1)CC[C@@H]1C[C@@](O)(c3ccccn3)[C@](C)(O)C[C@@]21Cc1ccccc1
inequality.symbol: >
recorded.measurement: 20

molecular.string: Cc1ncccc1NC(=O)c1ccc2c(c1)C(=O)C[C@@H]1C[C@@](O)(c3ccccc3)[C@](C)(O)C[C@@]21Cc1ccccc1
inequality.symbol: =
recorded.measurement: 1.28

###

Reported inhibition at 0.00411523 µM values for a set of compounds
Test system: IFNγ
assay.notes: LPS-induced human whole blood, IFNγ release
Assay type: cell-based
experimental.conditions: Homo sapiens, 4.115226 nM, mean of donors
endpoint: inhibition at 0.00411523 µM (%)

compound: Cc1ncccc1CNC(=O)c1ccc2c(c1)CC[C@@H]1C[C@@](O)(CCC(F)(F)F)CC[C@@]21Cc1ccccc1 [Comparator A]
target.of.assay: IFNγ
recorded.measurement: -1.7
//
compound: C[C@]12C=CC(=O)C=C1CC[C@@H]1[C@@H]2[C@@H](O)C[C@@]2(C)[C@H]1CC[C@]2(O)C(=O)CO [Prednisolone]
target.of.assay: IFNγ
recorded.measurement: 25.2
//
compound: Oc1ccc2c(c1)CC[C@@H]1C[C@@](O)(c3ccccc3)[C@@H](O)C[C@@]21Cc1ccccc1 [Comparator F]
target.of.assay: IFNγ
recorded.measurement: -15.3
//
compound: Cc1ncccc1COc1ccc2c(c1)CC[C@@H]1C[C@@](O)(c3ccccc3)[C@@H](O)C[C@@]21Cc1ccccc1 [Comparator G]
target.of.assay: IFNγ
recorded.measurement: 12.8

###

Tested on: TNFα
assay.notes: LPS-induced human whole blood, TNFα release
Format: cell-based
experimental.conditions: Homo sapiens, 111.1111 nM, mean of donors
Reported inhibition at 0.111111 µM values for a set of molecules
endpoint: inhibition at 0.111111 µM (%)

molecular.string: Oc1ccc2c(c1)CC[C@@H]1C[C@@](O)(c3ccccc3)[C@@H](O)C[C@@]21Cc1ccccc1
endpoint: inhibition at 0.111111 µM
quantity.unit: %
recorded.measurement: -6.35
//
molecular.string: C[C@]12C=CC(=O)C=C1CC[C@@H]1[C@@H]2[C@@H](O)C[C@@]2(C)[C@H]1CC[C@]2(O)C(=O)CO
endpoint: inhibition at 0.111111 µM
quantity.unit: %
recorded.measurement: 67.1
//
molecular.string: Cc1ncccc1COc1ccc2c(c1)CC[C@@H]1C[C@@](O)(c3ccccc3)[C@@H](O)C[C@@]21Cc1ccccc1
endpoint: inhibition at 0.111111 µM
quantity.unit: %
recorded.measurement: -8.76
//
molecular.string: Cc1ncccc1CNC(=O)c1ccc2c(c1)CC[C@@H]1C[C@@](O)(CCC(F)(F)F)CC[C@@]21Cc1ccccc1
endpoint: inhibition at 0.111111 µM
quantity.unit: %
recorded.measurement: -3.82

###

Test system: serum insulin
assay.notes: 28-day mouse side-effect model, serum insulin
Assay type: in vivo
experimental.conditions: oral gavage 28 days
endpoint: Insulin (ED80 dose)

molecular.string: Cc1nc(Br)ccc1NC(=O)c1ccc2c(c1)CC[C@@H]1C[C@@](O)(c3ccccc3)[C@](C)(O)C[C@@]21Cc1ccccc1
endpoint: Insulin (ED80 dose)
inequality.symbol: =
recorded.measurement: 7.58
--
molecular.string: Cc1ncccc1NC(=O)c1ccc2c(c1)C(=O)C[C@@H]1C[C@@](O)(c3ccccc3)[C@](C)(O)C[C@@]21Cc1ccccc1
endpoint: Insulin (ED80 dose)
inequality.symbol: =
recorded.measurement: 5.89
--
molecular.string: Cc1ncccc1NC(=O)c1ccc2c(c1)CC[C@@H]1C[C@@](O)(c3ccccn3)[C@](C)(O)C[C@@]21Cc1ccccc1
endpoint: Insulin (ED80 dose)
inequality.symbol: >
recorded.measurement: 20
--
molecular.string: Cc1ncccc1NC(=O)c1ccc2c(c1)CC[C@@H]1C[C@@](O)(C(F)(F)F)[C@](C)(O)C[C@@]21Cc1ccccc1
endpoint: Insulin (ED80 dose)
inequality.symbol: >
recorded.measurement: 1
--
molecular.string: C[C@@]1(O)C[C@@]2(Cc3ccccc3)c3ccc(C(=O)NCc4cccnc4)cc3CC[C@@H]2C[C@@]1(O)c1ccccc1
endpoint: Insulin (ED80 dose)
inequality.symbol: >
recorded.measurement: 60

###

System: IFNγ
assay.notes: LPS-induced human whole blood, IFNγ release
Format: cell-based
experimental.conditions: Homo sapiens, 12.34568 nM, mean of donors
Reported inhibition at 0.0123457 µM values for a set of compounds
endpoint: inhibition at 0.0123457 µM (%)

compound: Cc1ncccc1CNC(=O)c1ccc2c(c1)CC[C@@H]1C[C@@](O)(CCC(F)(F)F)CC[C@@]21Cc1ccccc1 [Comparator A]
target.of.assay: IFNγ
recorded.measurement: 0.016
//
compound: Cc1ncccc1COc1ccc2c(c1)CC[C@@H]1C[C@@](O)(c3ccccc3)[C@@H](O)C[C@@]21Cc1ccccc1 [Comparator G]
target.of.assay: IFNγ
recorded.measurement: -9.15
//
compound: Oc1ccc2c(c1)CC[C@@H]1C[C@@](O)(c3ccccc3)[C@@H](O)C[C@@]21Cc1ccccc1 [Comparator F]
target.of.assay: IFNγ
recorded.measurement: -8.35
//
compound: C[C@]12C=CC(=O)C=C1CC[C@@H]1[C@@H]2[C@@H](O)C[C@@]2(C)[C@H]1CC[C@]2(O)C(=O)CO [Prednisolone]
target.of.assay: IFNγ
recorded.measurement: 34.7

The reported measurements were obtained from patent US8552035B2.
